This section presents compounds with their documented isoTOP-ABPP ratio Q9NQC3_C1101 values.
target entity: cysteines in MDA-MB-231 and Ramos cells (Homo sapiens, UniProt Q9NQC3)
Sequence (Q9NQC3 1-1192): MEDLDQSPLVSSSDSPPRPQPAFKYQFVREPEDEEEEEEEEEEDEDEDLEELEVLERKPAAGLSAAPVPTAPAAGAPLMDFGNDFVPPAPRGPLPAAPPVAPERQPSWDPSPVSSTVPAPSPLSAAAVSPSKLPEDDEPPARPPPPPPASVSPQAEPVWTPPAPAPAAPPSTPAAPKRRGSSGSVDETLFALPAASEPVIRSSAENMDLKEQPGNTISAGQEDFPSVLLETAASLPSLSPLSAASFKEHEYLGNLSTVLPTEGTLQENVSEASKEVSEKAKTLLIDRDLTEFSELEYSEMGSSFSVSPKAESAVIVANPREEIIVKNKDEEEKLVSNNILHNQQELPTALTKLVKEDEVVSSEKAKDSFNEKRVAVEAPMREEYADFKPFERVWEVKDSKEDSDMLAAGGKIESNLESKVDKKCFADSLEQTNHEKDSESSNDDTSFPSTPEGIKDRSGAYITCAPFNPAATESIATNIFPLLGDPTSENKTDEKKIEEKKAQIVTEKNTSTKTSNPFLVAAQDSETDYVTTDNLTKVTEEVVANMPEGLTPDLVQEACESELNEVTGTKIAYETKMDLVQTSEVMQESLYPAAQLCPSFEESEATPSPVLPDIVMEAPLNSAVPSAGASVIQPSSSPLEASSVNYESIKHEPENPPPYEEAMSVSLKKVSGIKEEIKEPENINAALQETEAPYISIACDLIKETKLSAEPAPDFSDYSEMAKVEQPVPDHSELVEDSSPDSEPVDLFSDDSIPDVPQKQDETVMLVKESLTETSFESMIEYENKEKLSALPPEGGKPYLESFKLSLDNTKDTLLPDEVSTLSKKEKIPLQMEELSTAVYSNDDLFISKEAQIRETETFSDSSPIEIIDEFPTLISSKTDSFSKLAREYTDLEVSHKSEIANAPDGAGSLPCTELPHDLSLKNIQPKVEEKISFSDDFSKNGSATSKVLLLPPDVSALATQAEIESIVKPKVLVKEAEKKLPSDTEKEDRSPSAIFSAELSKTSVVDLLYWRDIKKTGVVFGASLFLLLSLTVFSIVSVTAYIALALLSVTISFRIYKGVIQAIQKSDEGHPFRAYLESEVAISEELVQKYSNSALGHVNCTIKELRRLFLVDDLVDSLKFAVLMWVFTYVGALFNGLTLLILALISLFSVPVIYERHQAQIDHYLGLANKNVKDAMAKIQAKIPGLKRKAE
assay procedure: Competitive isoTOP-ABPP in situ (fragment-treated cells)
Assay type: cell-based
condition description: 200 μM, insitu, 231
result type: isoTOP-ABPP ratio Q9NQC3_C1101

- C=CC(=O)N(Cc1cccnc1)c1cc(C(F)(F)F)cc(C(F)(F)F)c1: 12.8
- Cc1ccc(C=C(C#N)C(=O)NCCN2CCOCC2)cc1: 1.0
- CC(C)CCOCCNC(=O)CCl: 1.4
